# Test system: HCT116 cells
# assayOverview: 3H-thymidine incorporation (proliferation) assay in HCT116 cells after siRNA treatment against RabGGT subunits
# Assay type: cell-based, human
# Parameters: concentration or dose not given beside the values
# conditionContext: 72 hours after siRNA/Lipofectamine 2000 treatment, average of three replicates

>  <substance>
Beta-2: siRNA against human RabGGT-beta, coding bases 662-685, SEQ ID NO:09 / NO:10 (chain 1 CGACAAUUACCCUCAGGCGTT; chain 2 CGCCUGAGGGUAAUUGUCGTT; chemistry not given here)

>  <3H-thy incorp. % of control, %>
39

$$$$
>  <substance>
Alpha-1: siRNA against human RabGGT-alpha, coding bases 268-291, SEQ ID NO:01 / NO:02 (chain 1 GGCAGAACUGGGCUUCCUGTT; chain 2 CAGGAAGCCCAGUUCUGCCTT; chemistry not given here)

>  <3H-thy incorp. % of control, %>
33

$$$$
>  <substance>
Beta-1: siRNA against human RabGGT-beta, coding bases 493-516, SEQ ID NO:07 / NO:08 (chain 1 CUUUGGCUUUGUUGGGGAATT; chain 2 UUCCCCAACAAAGCCAAAGTT; chemistry not given here)

>  <3H-thy incorp. % of control, %>
77

$$$$
>  <substance>
Beta-3: siRNA against human RabGGT-beta, coding bases 812-835, SEQ ID NO:11 / NO:12 (chain 1 GAUGAAGAAACGGGGGGAUTT; chain 2 AUCCCCCCGUUUCUUCAUCTT; chemistry not given here)

>  <3H-thy incorp. % of control, %>
36

$$$$
>  <substance>
Alpha-2: siRNA against human RabGGT-alpha, coding bases 628-651, SEQ ID NO:03 / NO:04 (chain 1 AGAGCUGGAGCUGGUGCAGTT; chain 2 CUGCACCAGCUCCAGCUCUTT; chemistry not given here)

>  <3H-thy incorp. % of control, %>
17

$$$$
>  <substance>
Alpha-3: siRNA against human RabGGT-alpha, coding bases 1309-1332, SEQ ID NO:05 / NO:06 (chain 1 GAUGGAGUAUGCCGAGGUGTT; chain 2 CACCUCGGCAUACUCCAUCTT; chemistry not given here)

>  <3H-thy incorp. % of control, %>
63

$$$$

Data provenance is patent US20040142888A1.
